Biological target: Cyclin-dependent kinase 1/cyclin B1 (Homo sapiens, UniProt P06493+P14635)
Sequence (P06493 whole entry, looked up): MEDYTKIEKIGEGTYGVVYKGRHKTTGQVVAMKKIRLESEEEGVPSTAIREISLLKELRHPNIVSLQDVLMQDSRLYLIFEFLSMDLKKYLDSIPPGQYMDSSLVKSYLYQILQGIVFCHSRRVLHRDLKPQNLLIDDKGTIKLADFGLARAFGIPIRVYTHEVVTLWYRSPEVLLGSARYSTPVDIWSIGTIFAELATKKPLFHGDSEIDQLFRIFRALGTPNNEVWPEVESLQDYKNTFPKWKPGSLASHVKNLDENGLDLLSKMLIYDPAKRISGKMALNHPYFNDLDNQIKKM
Sequence (P14635 whole entry, looked up): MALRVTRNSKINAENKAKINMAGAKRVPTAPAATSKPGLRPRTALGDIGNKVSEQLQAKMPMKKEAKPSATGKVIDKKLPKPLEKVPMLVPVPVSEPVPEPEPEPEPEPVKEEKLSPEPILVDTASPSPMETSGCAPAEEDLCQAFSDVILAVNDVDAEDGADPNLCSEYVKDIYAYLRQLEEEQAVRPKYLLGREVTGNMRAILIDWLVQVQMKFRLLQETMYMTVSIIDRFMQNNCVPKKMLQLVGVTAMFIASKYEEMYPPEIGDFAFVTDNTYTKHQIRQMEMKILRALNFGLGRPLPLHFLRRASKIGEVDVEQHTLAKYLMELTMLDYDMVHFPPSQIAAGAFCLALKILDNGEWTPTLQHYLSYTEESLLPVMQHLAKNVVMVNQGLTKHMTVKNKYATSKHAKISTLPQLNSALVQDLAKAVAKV
Assay: Inhibition of Cyclin dependent kinase 1-cyclin B1 from starfish oocytes at 10 uM
Details: Asteroidea, Oocyte

{"molecule": "Nc1cc(OCC2CC=CCC2)nc(N)n1 (centres undefined)", "unit.abbrev": "%", "inhibition": 16}
{"molecule": "Nc1nc(N)c(C(=O)c2ccccc2)c(OCC2CCCCC2)n1", "unit.abbrev": "%", "inhibition": 21}
{"molecule": "Nc1nc(NC(=O)OCc2ccccc2)c(N=O)c(OCC2CCCCC2)n1", "unit.abbrev": "%", "inhibition": 14}
{"molecule": "CCCCCCCOc1nc(N)nc(N)c1N=O", "unit.abbrev": "%", "inhibition": 17}
{"molecule": "CO/N=C/c1c(N)nc(N)nc1OCC1CCCCC1", "unit.abbrev": "%", "inhibition": 13}
{"molecule": "Nc1cc(OCC2CCCCC2)nc(N)n1", "unit.abbrev": "%", "inhibition": 4}
{"molecule": "Nc1nc(N)c(/C=N/OCc2ccccc2)c(OCC2CCCCC2)n1", "unit.abbrev": "%", "inhibition": 5}
{"molecule": "CCCCCOc1nc(N)nc(N)c1N=O", "unit.abbrev": "%", "inhibition": 35}
{"molecule": "Nc1nc(N)c(C=O)c(OCC2CCCCC2)n1", "unit.abbrev": "%", "inhibition": 35}

Measured values drawn from ChEMBL document CHEMBL1136262 for this set.
